target: hFASN enzyme (full length) (Homo sapiens); construct: 10 μL hFASN enzyme (full length, 300 ng, purified in house); made in house; experiment: Fatty Acid Synthase (FASN) inhibition scintillation proximity assay; assay type: biochemical; conditions: read-out: Human FASN % inhibition @ 10 μM, 10 μM test compound
value_kind: inhibition at 10 µM (%)

1) Cc1cc(-c2ccc3c(cnn3C)c2)ccc1C1=NC2(CC2)C(=O)N1CC1CN(C(=O)C2(C)CCC2)C1 [compound 208] :: 99

P. COC(=O)N1CC[C@@H](CN2C(=O)C3(CCOCC3)N=C2c2ccc(-c3ccc(-c4cnn(C)c4)cc3)cc2)C1 [compound 658]
Q. Cn1nc(Cl)c2cc(-c3ccc(C4=NC5(CC5)C(=O)N4CC4CN(C(=O)C5CC5)C4)c(F)c3)ccc21 [compound 607]
**Query** // select label with min value of measured inhibition at 10 µM from [ P , Q ] Please respond with the label that marks your chosen entry.
**Result** P

* * *

target: hFASN enzyme (full length) (Homo sapiens, UniProt P49327); construct: 10 μL hFASN enzyme (full length, 300 ng, purified in house); made in house; assay: Fatty Acid Synthase (FASN) inhibition scintillation proximity assay; assay type: biochemical; conditions: read-out: Human FASN % inhibition @ 10 μM, 10 μM test compound
Sequence (P49327 whole entry): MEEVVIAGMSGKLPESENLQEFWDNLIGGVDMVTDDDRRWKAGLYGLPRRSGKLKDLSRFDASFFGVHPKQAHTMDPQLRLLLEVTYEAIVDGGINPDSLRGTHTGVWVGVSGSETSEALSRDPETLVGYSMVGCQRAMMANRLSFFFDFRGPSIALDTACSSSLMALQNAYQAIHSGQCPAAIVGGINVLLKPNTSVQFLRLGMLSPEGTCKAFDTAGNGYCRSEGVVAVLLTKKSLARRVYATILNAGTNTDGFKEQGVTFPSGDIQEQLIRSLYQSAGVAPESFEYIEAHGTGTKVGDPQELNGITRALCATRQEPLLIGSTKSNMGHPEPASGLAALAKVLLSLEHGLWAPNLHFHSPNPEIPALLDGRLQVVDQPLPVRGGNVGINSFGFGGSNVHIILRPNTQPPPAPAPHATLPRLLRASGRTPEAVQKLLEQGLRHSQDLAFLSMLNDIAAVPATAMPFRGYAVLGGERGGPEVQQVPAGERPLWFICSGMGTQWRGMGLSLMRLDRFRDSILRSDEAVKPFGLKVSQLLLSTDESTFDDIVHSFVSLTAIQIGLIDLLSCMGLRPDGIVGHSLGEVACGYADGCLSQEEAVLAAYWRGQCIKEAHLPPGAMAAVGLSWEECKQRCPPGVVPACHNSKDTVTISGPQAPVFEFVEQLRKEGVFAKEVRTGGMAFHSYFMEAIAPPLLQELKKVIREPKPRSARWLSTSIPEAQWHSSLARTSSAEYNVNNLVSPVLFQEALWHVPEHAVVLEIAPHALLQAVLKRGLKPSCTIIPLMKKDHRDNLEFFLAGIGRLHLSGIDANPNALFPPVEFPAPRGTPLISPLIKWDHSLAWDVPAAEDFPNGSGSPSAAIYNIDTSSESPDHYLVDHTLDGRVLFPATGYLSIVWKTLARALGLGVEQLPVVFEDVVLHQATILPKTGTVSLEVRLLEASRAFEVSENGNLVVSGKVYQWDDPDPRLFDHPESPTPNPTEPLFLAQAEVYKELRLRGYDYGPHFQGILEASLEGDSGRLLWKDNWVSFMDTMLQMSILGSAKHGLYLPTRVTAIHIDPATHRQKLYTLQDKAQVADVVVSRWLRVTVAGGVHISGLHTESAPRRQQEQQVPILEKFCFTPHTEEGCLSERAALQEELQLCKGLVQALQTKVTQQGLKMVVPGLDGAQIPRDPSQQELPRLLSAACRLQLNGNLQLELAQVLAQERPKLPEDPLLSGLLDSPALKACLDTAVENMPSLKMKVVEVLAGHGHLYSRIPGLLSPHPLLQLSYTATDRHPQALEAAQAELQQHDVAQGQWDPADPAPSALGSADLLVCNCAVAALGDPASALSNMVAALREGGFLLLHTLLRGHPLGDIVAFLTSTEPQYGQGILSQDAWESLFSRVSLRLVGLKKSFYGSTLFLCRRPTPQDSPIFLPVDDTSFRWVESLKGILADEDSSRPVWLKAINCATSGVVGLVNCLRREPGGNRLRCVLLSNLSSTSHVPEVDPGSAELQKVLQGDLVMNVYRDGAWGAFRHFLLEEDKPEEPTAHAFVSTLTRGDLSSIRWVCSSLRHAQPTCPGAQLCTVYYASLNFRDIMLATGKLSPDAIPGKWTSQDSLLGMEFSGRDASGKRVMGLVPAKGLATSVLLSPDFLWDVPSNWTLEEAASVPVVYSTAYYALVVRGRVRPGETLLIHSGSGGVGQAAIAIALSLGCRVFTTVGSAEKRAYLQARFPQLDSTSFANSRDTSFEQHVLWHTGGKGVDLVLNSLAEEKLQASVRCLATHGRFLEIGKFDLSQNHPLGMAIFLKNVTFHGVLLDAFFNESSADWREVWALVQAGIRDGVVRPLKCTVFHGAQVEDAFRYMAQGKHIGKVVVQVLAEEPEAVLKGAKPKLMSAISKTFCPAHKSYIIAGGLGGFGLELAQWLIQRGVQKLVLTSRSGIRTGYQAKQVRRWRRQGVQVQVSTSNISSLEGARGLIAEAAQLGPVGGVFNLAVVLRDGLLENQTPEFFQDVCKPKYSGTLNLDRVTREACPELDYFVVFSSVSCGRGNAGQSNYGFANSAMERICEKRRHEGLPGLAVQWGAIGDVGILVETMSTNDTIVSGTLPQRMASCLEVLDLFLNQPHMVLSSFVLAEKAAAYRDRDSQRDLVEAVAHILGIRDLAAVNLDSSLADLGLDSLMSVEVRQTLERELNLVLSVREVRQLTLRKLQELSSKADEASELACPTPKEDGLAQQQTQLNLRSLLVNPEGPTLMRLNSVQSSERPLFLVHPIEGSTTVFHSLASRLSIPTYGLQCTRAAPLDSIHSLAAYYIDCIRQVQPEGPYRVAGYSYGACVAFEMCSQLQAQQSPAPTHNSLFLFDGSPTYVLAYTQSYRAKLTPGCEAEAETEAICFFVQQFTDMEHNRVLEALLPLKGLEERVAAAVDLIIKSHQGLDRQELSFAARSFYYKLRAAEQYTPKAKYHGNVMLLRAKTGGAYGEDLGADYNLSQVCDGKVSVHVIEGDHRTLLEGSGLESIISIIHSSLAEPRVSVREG
value_kind: inhibition at 10 µM (%)

a. Cc1cc(-c2ccc(-c3cnn(C4CCC4)c3)cc2)ccc1C1=NC2(CC2)C(=O)N1CC1CN(C(=O)C2(C)CC2)C1 [compound 338]
b. O=C(C1CC1)N1CC(CN2C(=O)C3(CC3)N=C2c2ccc(-c3ccc4c(cnn4C4COC4)c3)cc2F)C1 [compound 789]
**Query** When a and b are compared, which has the higher number for inhibition at 10 µM? Please respond with the label that marks your chosen entry.
**Result** a
(a: 106%, b: 26%)

* * *

molecular target: hFASN enzyme (full length) (Homo sapiens); construct: 10 μL hFASN enzyme (full length, 300 ng, purified in house); made in house; experiment: Fatty Acid Synthase (FASN) inhibition scintillation proximity assay; assay type: biochemical; conditions: read-out: Human FASN pIC50 (converted)
value_kind: IC50 (nM)

1. CN(C)CC(=O)N1CCC2(CC1)N=C(c1ccc(-c3ccc4[nH]ncc4c3)cc1)N(C[C@@H]1CCN(C(=O)C3CC3)C1)C2=O
2. O=C(C1CC1)N1CC(CN2C(=O)C3(CC3)N=C2c2ccc(-c3ccc4oncc4c3)cc2)C1
3. CC(=O)N1CCC2(CC1)N=C(c1ccc(-c3ccc4cnccc4c3)cc1)N(C[C@@H]1CCN(C(=O)C3CC3)C1)C2=O
4. O=C(C1CC1)N1CC[C@@H](CN2C(=O)C3(CC3)N=C2c2ccc(-c3ccc4cccc(F)c4c3)cc2)C1
**Query** Output the listed items in decreasing order of IC50. Put the labels in the requested order and write them down.
**Result** 2, 1, 3, 4
(2: 8510 nM, 1: 229 nM, 3: 63.1 nM, 4: 38.9 nM)

* * *

Molecular target: hFASN enzyme (full length) (Homo sapiens, UniProt P49327)
Construct: 10 μL hFASN enzyme (full length, 300 ng, purified in house); made in house
Assay: Fatty Acid Synthase (FASN) inhibition scintillation proximity assay
Type: biochemical
Conditions: read-out: Human FASN pIC50 (converted)
Experimental: In this assay, inhibition of FASN activity is measured using ^3H-acetyl-CoA and malonyl-CoA as substrates. ^3H-Acetyl CoA is converted to ^3H-palmitate through a series of reactions by the FASN protein, which contains 7 functional domains and carries out 7 enzymatic reactions to ultimately produce ^3H-palmitate. The assay principle is based upon the fact that ^3H-acetyl-CoA is hydrophilic and the end product, ^3H-palmitate is hydrophobic. […]
value_kind: IC50 (nM)

Guide cases for IC50, answers given:
1) O=C(C1CC1)N1CC(CN2C(=O)C3(CC3)N=C2c2ccc(-c3ccc4cccnc4c3F)cc2)C1 :: 66.1
2) Cc1sc2ccc(-c3ccc(C4=NC5(CCN(C(=O)CN(C)C)CC5)C(=O)N4C[C@@H]4CCN(C(=O)C5CC5)C4)cc3)cc2c1C :: 138
3) O=C(C1CC1)N1CC[C@@H](CN2C(=O)C3(CC3)N=C2c2ccc(-c3ccc4sccc4c3)c(F)c2)C1 :: 50.1

P. Cc1cc(-c2ccc(-c3cnn(C(C)C)c3)cc2)ccc1C1=NC2(CC2)C(=O)N1CC1CN(C(=O)C2CC2)C1
Q. Cc1cc(Cl)nc2cc(-c3ccc(C4=NC5(CC5)C(=O)N4CC4CN(C(=O)C5CC5)C4)cc3)ccc12
**Query** When P and Q are compared, which has the higher number for IC50? Please respond with the label that marks your chosen entry.
**Result** Q
(Q: 6030 nM, P: 79.4 nM)

A. O=C(C1CC1)N1CC[C@@H](CN2C(=O)C3(CC3)N=C2c2ccc(-c3ccc4cncnc4c3)cc2)C1
B. Cc1cc(-c2ccc(-c3ccn(CC4CC4)n3)cc2)ccc1C1=NC2(CC2)C(=O)N1CC1CN(C(=O)C2(C)CC2)C1
**Query** When A and B are compared, which has the higher number for IC50? Please respond with the label that marks your chosen entry.
**Result** B
(B: 186 nM, A: 75.9 nM)

* * *

target: hFASN enzyme (full length) (Homo sapiens); construct: 10 μL hFASN enzyme (full length, 300 ng, purified in house); made in house; assay: Fatty Acid Synthase (FASN) inhibition scintillation proximity assay; type: biochemical; details: read-out: Human FASN % inhibition @ 10 μM, 10 μM test compound
value_kind: inhibition at 10 µM (%)

1. CS(=O)(=O)N1CC[C@@H](CN2C(=O)C3(CCOCC3)N=C2c2ccc(-c3ccc4occc4c3)cc2)C1 :: 0.4
2. Cn1cc2cc(-c3ccc(C4=NC5(CC5)C(=O)N4CC4CN(C(=O)C5CC5)C4)cc3)ccc2n1 :: 89
3. Cc1cc(-c2cccc(SC3CC3)c2)ccc1C1=NC2(CC2)C(=O)N1C[C@@H]1CCN(C(=O)C2CC2)C1 :: 99

a. Cn1ncc2cc(-c3ccc(C4=NC5(CCN(C(=O)C(F)(F)F)CC5)C(=O)N4CC4CN(C(=O)C5CC5)C4)cc3)ccc21
b. O=C(C1CC1)N1CC(CN2C(=O)C3(CC3)N=C2c2ccc(-c3ccc(Cl)cc3F)cc2F)C1
**Query** // select label with min value of measured inhibition at 10 µM from [ a , b ] Please respond with the label that marks your chosen entry.
**Result** a
(a: 41%, b: 99%)

* * *

target: hFASN enzyme (full length) (Homo sapiens); construct: 10 μL hFASN enzyme (full length, 300 ng, purified in house); made in house; experiment: Fatty Acid Synthase (FASN) inhibition scintillation proximity assay; format: biochemical; conditions: read-out: Human FASN pIC50 (converted)
value_kind: IC50 (µM)

Guide cases for IC50, answers given:
1) O=C(N1CC[C@@H](CN2C(=O)C3(CCOC3)N=C2c2ccc(-c3ccc4cccnc4c3)cc2)C1)C(F)(F)F (some centres unmarked) [compound 684] :: 4.27
2) Cc1[nH]c2ccc(-c3ccc(C4=NC5(CC5)C(=O)N4C[C@@H]4CCN(C(=O)C5CC5)C4)cc3)cc2c1C [compound 213] :: 0.0468
3) O=C(CN1CC[C@@H](CN2C(=O)C3(CCN(Cc4ccccc4)CC3)N=C2c2ccc(-c3ccc4occc4c3)cc2)C1)C1CC1 [compound 96] :: 5.01
4) Cc1cc(-c2ccc(Cl)cc2)ccc1C1=NC2(CCCC2)C(=O)N1C[C@@H]1CCN(C(=O)C2CC2)C1 [compound 93] :: 0.0759
5) O=C(C1CC1)N1CC(CN2C(=O)C3(CC3)N=C2c2ccc(-c3cc4cnn(CCO)c4cc3F)cc2)C1 [compound 552] :: 4.9

A. CC(C)n1cc(-c2ccc(-c3ccc(C4=NC5(CC5)C(=O)N4CC4CN(C(=O)C5CC5)C4)cc3)cn2)cn1 [compound 516]
B. COCCN1CCC2(CC1)N=C(c1ccc(-c3ccc4[nH]ccc4c3)cc1)N(CC1CN(C(=O)C3CC3)C1)C2=O [compound 755]
C. O=C(C1CC1)N1CC[C@@H](CN2C(=O)C3(CC3)N=C2c2ccc(-c3ccc4ccncc4c3)cc2)C1 [compound 30]
D. Cn1ncc2cc(-c3ccc(C4=NC5(CC5)C(=O)N4CC4CN(C(=O)C5(O)CC5)C4)c(Cl)c3)ccc21 [compound 264]
**Query** Thanks in advance: please rank these 4 entries by IC50, highest to lowest. Put the labels in the requested order and write them down.
**Result** A, B, C, D

* * *

molecular target: hFASN enzyme (full length) (Homo sapiens, UniProt P49327); construct: 10 μL hFASN enzyme (full length, 300 ng, purified in house); made in house; assay: Fatty Acid Synthase (FASN) inhibition scintillation proximity assay; type: biochemical; details: read-out: Human FASN pIC50 (converted)
value_kind: IC50 (nM)

1) O=C(C1CC1)N1CC[C@@H](CN2C(=O)C3(CC3)N=C2c2ccc(-c3ccc4occc4c3)cc2F)C1 :: 12.3
2) Cc1cc2cc(-c3ccc(C4=NC5(CC5)C(=O)N4C[C@@H]4CCN(C(=O)C5CC5)C4)c(C)c3)ccc2s1 :: 44.7
3) CCn1ncc2cc(-c3ccc(C4=NC5(CC5)C(=O)N4CC4CN(C(=O)C5CC5)C4)c(F)c3)ccc21 :: 513
4) Cc1cc(-c2ccc3oc(C)c(C)c3c2)ccc1C1=NC2(CC2)C(=O)N1CC1CN(C(=O)C2CC2)C1 :: 263
5) Cc1cc(-c2cccc(NS(=O)(=O)C3CC3)c2)ccc1C1=NC2(CC2)C(=O)N1C[C@@H]1CCN(C(=O)C2CC2)C1 :: 115

a. O=C(C1CC1)N1CC(CN2C(=O)C3(CC3)N=C2c2ccc(-c3cc(C(F)(F)F)ccc3F)cc2F)C1
b. O=C(C1CCO1)N1CC(CN2C(=O)C3(CC3)N=C2c2ccc(-c3ccc4cc(F)ccc4c3)cc2F)C1 (centres unmarked)
c. O=C(C1CC1)N1CC[C@@H](CN2C(=O)C3(CCN(CCO)CC3)N=C2c2ccc(-c3ccc4occc4c3)cc2)C1
d. O=C(C1CC1)N1CCC(CN2C(=O)C3(CC3)N=C2c2ccc(-c3ccc4scnc4c3)cc2)CC1
**Query** Order by IC50, ascending. Put the labels in the requested order and write them down.
**Result** b, c, d, a
(b: 26.3 nM, c: 145 nM, d: 759 nM, a: 3160 nM)

I. Cc1cc(-c2ccc(C3=NC4(CC4)C(=O)N3CC3CN(C(=O)C4CC4)C3)cc2)cc2cnn(C)c12
II. O=C(C1CC1)N1CC[C@@H](CN2C(=O)C3(CCCC3)N=C2c2ccc(-c3ccc4cc[nH]c4c3)cc2)C1
**Query** // select label with min value of measured IC50 from [ I , II ] Please respond with the label that marks your chosen entry.
**Result** II

P. N#Cc1cccc(-c2ccc(C3=NC4(CC4)C(=O)N3C[C@@H]3CCN(C(=O)C4CC4)C3)cc2)c1
Q. Cn1cc2ccc(-c3ccc(C4=NC5(CC5)C(=O)N4CC4CN(C(=O)C5CC5)C4)c(F)c3)cc2n1
**Query** When P and Q are compared, which has the higher number for IC50? Please respond with the label that marks your chosen entry.
**Result** P
